Cited source for all entries: patent US11104676B2

TARGET OR SYSTEM: His-tagged recombinant human MER cytoplasmic domain (Homo sapiens (Human))
Sequence (Q12866 527-999): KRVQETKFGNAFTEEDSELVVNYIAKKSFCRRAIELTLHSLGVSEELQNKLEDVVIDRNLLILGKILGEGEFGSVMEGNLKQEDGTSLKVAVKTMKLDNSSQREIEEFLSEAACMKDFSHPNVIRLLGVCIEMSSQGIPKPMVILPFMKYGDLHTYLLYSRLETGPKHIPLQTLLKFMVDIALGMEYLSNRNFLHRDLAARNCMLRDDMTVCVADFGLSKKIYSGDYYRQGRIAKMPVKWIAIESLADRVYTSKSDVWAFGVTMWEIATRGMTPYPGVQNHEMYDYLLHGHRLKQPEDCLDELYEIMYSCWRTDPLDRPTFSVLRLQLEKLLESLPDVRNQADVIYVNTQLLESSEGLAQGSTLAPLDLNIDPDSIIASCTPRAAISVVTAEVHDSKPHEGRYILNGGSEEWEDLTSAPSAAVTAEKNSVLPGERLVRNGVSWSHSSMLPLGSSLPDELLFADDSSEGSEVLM
PROTOCOL CONDITIONS: read-out: MER enzyme IC50
pIC50 values for the compounds below.
The quantity pIC50 is defined as the negative base-10 logarithm of the molar concentration.

- COMPOUND: "C[C@H](CO)Nc1n[nH]c2nccc(Oc3ccc(NC(=O)C4(C)CCCN(c5ccc(F)cc5)C4=O)cc3F)c12 (some centres unmarked)"
  TARGET OR SYSTEM: "His-tagged recombinant human MER cytoplasmic domain (Homo sapiens (Human))"
  READOUT KIND: "pIC50"
  RECORDED RESULT: 6.75

From here, focus on the item given below.
Q. Look up pIC50 with His-tagged recombinant human MER cytoplasmic domain (Homo sapiens (Human)) for this compound: C[C@H](CO)Nc1n[nH]c2nccc(Oc3ccc(NC(=O)C4CC5(CC5)CN(c5ccc(F)cc5)C4=O)cc3F)c12 (some centres unmarked)
A. 6.79

====

TARGET OR SYSTEM: GST-tagged recombinant human TYRO3 kinase domain (Homo sapiens (Human))
Sequence (Q06418 518-790): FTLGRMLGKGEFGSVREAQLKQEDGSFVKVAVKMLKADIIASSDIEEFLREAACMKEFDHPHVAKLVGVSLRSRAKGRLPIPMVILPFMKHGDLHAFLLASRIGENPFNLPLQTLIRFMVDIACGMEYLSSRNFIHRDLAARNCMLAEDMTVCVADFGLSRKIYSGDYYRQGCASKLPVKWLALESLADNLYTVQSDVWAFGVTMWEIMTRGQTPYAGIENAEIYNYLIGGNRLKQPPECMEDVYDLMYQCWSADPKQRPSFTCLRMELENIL
PROTOCOL CONDITIONS: read-out: TYRO3 enzyme IC50
READOUT KIND: IC50 (nM)
Unit nM implied. Number only.

- MOLECULE: "COCC(C)(C)Nc1n[nH]c2nccc(Oc3ccc(NC(=O)c4ccnn(-c5ccc(F)cc5)c4=O)nc3)c12"
  RECORDED RESULT: 192

Q. Endpoint output: IC50 of `COCC1(Nc2n[nH]c3nccc(Oc4ccc(NC(=O)c5ccnn(-c6ccc(F)cc6)c5=O)cc4F)c23)CCC1` . Value?
A. 188

Q. Also `COC[C@@H](C)Nc1n[nH]c2nccc(Oc3ccc(NC(=O)c4cc(C5CC5)cn(-c5ccc(F)cc5)c4=O)nc3)c12` , if possible.
A. 106

Q. Also `CCn1nc(C(=O)Nc2ccc(Oc3ccnc4[nH]nc(N[C@@H](C)CO)c34)c(F)c2)c(=O)n(-c2ccc(F)c(F)c2)c1=O` , if possible.
A. 348

Q. Also C[C@H](CO)Nc1n[nH]c2nccc(Oc3ccc(NC(=O)C4(C)CCCN(c5ccc(F)cc5)C4=O)cc3F)c12 (stereo partly shown) , if possible.
A. 1000

Q. Also `COC[C@@H](C)Nc1n[nH]c2nccc(Oc3ccc(NC(=O)c4cc(C(C)C)nn(-c5ccc(F)cc5)c4=O)cc3F)c12` , if possible.
A. 292

Q. Also `CC(C)n1cc(C(=O)Nc2ccc(Oc3ccnc4[nH]nc(N[C@H](C)CO)c34)c(F)c2)c(=O)n(C(C)C)c1=O` , if possible.
A. 875

====

TARGET OR SYSTEM: GST-tagged recombinant human TYRO3 kinase domain (Homo sapiens (Human))
PROTOCOL CONDITIONS: read-out: TYRO3 enzyme IC50
READOUT KIND: pIC50
The quantity pIC50 is defined as the negative base-10 logarithm of the molar concentration.

Field: example entries. Status: answers known.
- MOLECULE: "CC(C)(O)C1(Nc2n[nH]c3nccc(Oc4ccc(NC(=O)c5ccnn(-c6ccc(F)cc6)c5=O)cc4F)c23)CCCC1"
  pIC50: 6.15
- MOLECULE: "C[C@H](CO)Nc1n[nH]c2nccc(Oc3ccc(NC(=O)c4cc5c(n(-c6ccc(F)cn6)c4=O)CCCC5=O)cc3F)c12"
  pIC50: 6.86
- MOLECULE: "CCOC[C@H](C)Nc1n[nH]c2nccc(Oc3ccc(NC(=O)c4cc(C)cn(-c5ccc(F)cc5)c4=O)cc3F)c12"
  pIC50: 6.88
- MOLECULE: "CC(C)n1cc(C(=O)Nc2ccc(Oc3ccnc4[nH]nc(N[C@H](C)CO)c34)c(F)c2)c(=O)n(C2CCOCC2)c1=O"
  pIC50: 6.26
- MOLECULE: "Cc1c(C(=O)Nc2ccc(Oc3ccnc4[nH]nc(N[C@H](C)CO)c34)c(F)c2)c(=O)n(-c2ccccc2)n1C"
  pIC50: 6.98

From here, focus on the item given below.
Q. Endpoint output: pIC50 of `CCn1cc(C(=O)Nc2ccc(Oc3ccnc4[nH]nc(NC(C)(C)COC)c34)c(F)c2)c(=O)n(-c2ccc(F)cc2)c1=O` . Value?
A. 6.93
